- Tested on: MS2 coat protein
- TEST_METHOD_NOTES: apparent KD of MS2 coat protein; designed switch direction (-1 OFF switch, 1 ON switch): -1; higher = weaker reporter binding
- TEST_PARAMETERS: input ligand: FMN 200 uM
Measured apparent KD of MS2 coat protein of individual entries
Quick reminder: number only, in nM, skip the unit.

Known apparent KD of MS2 coat protein results, listed for orientation:
ENTRY_SEQUENCE: AGGCCACAUGAGGAUCACCCAUGUUAGGAUAUCGAGAGUACAACGAGCCGUCACUUCCCGAGAAGGGACAAGGG [Eternabot (Original) Solution 22] (Eterna round: R97, puzzle: Exclusion 1)
UNIT_STRING: nM
apparent KD of MS2 coat protein: 65.3

ENTRY_SEQUENCE: GGUCUACAUGAGGAUCACCCAUGUAAGGAUAUCGUCACUGGAGCUGCGGCUCCAGUGACGAGAAGGUACGUAAU [E1/12-A3] (Eterna round: R97, puzzle: Exclusion 1)
UNIT_STRING: nM
apparent KD of MS2 coat protein: 33.7

ENTRY_SEQUENCE: CCUCAUAUUUAGGAUAUGAUUGGUAAUUAUUAGUUAGAAGGAGAUACAUGAGGAUCACCCAUGUAAUAUUUAAA [-11.7, -11.3 kcal, 36% A] (Eterna round: R97, puzzle: Exclusion 6)
UNIT_STRING: nM
apparent KD of MS2 coat protein: 20.3

ENTRY_SEQUENCE: GCUAGAGCAGGAUAUCUAGAUCCACACAUGAGGAUCACCCAUGUAUAGUCGAAAGACUAAAGAGAAGGGCUCUAGC [Omei Ex5 E14] (Eterna round: R97, puzzle: Exclusion 5)
UNIT_STRING: nM
apparent KD of MS2 coat protein: 72.7

Attention now turns to another entry.
Reported apparent KD of MS2 coat protein (MS2 coat protein) for entry AGCUAGUCAGUAGGAUAUGUAGGAUAUGUGGUUGAGGUUCACCCAACCACAUCAACGACAGAAGGACAGAAGGACUGGUUAGCA [pwkr exNG2 2xFMN 1xF5.5] (Eterna round: R96, puzzle: Exclusion NG 2) is 2320
